Entry source: paper PMC9721025

experiment: Stability of analytes in dog plasma (QC samples); type: in vitro ADME; settings: n = 3, middle QC: nominal 20 ng/mL baicalin, 100 ursodeoxycholic acid, 10 chenodeoxycholic acid and chlorogenic acid
endpoint: Long-term stability (30 days at – 80 °C) Mean ± S.D. concentration (ng/mL)
Field format: number, assumed ng/mL, no unit text.

Lookup: If you can, please state the reported Long-term stability (30 days at – 80 °C) Mean ± S.D. concentration value of C[C@H](CCC(=O)O)[C@H]1CC[C@H]2[C@@H]3[C@@H](O)C[C@@H]4C[C@H](O)CC[C@]4(C)[C@H]3CC[C@]12C .
Found: 90.80

Lookup: Same lookup for O=C(O)[C@H]1O[C@@H](Oc2cc3oc(-c4ccccc4)cc(=O)c3c(O)c2O)[C@H](O)[C@@H](O)[C@@H]1O , please.
Found: 17.47

Lookup: Same lookup for O=C(/C=C/c1ccc(O)c(O)c1)O[C@@H]1C[C@](O)(C(=O)O)C[C@@H](O)[C@H]1O , please.
Found: 8.95

Lookup: Same lookup for C[C@H](CCC(=O)O)[C@H]1CC[C@H]2[C@@H]3[C@H](O)C[C@@H]4C[C@H](O)CC[C@]4(C)[C@H]3CC[C@]12C , please.
Found: 10.10

---

assay: Pharmacokinetics in beagles, multiple-dose regimen (once per day for 7 days) of TRQI or TRQC, plasma LC-MS/MS; type: in vivo; conditions: both sexes, beagle, dog, po, 0.09 g/kg, TRQC 0.09 g/kg for 7 days, Mean
I'd be grateful if you could share measured AUC(0-inf) for these entries.
Field format: number, assumed ng·h/mL, no unit text.

Lookup: If you can, please state the reported AUC(0-inf) value of C[C@H](CCC(=O)O)[C@H]1CC[C@H]2[C@@H]3[C@@H](O)C[C@@H]4C[C@H](O)CC[C@]4(C)[C@H]3CC[C@]12C .
Found: 35300

Lookup: Same lookup for O=C(O)[C@H]1O[C@@H](Oc2cc3oc(-c4ccccc4)cc(=O)c3c(O)c2O)[C@H](O)[C@@H](O)[C@@H]1O , please.
Found: 142

Lookup: Same lookup for C[C@H](CCC(=O)O)[C@H]1CC[C@H]2[C@@H]3[C@H](O)C[C@@H]4C[C@H](O)CC[C@]4(C)[C@H]3CC[C@]12C , please.
Found: 3710

Lookup: Same lookup for O=C(/C=C/c1ccc(O)c(O)c1)O[C@@H]1C[C@](O)(C(=O)O)C[C@@H](O)[C@H]1O , please.
Found: 12.3

---

Assay: Pharmacokinetics in beagles, multiple-dose regimen (once per day for 7 days) of TRQI or TRQC, plasma LC-MS/MS
Type: in vivo
Conditions: female, beagle, dog, po, 0.09 g/kg, TRQC 0.09 g/kg for 7 days, beagle No. 6
Experimental: 100 μL plasma sample was drawn and transferred to 1.5 mL centrifuge tube prior to 300 μL protein precipitant (3:1 [v/v] methanol/acetonitrile, containing 0.1% formic acid and 100 ng/mL IS) was added, and then the sample was vortex-mixed for 3 min. The mixture was centrifuged at 20,000 ×g for 10 min, and 100 μL supernatant was transferred to the injection vial and analyzed directly by LC–MS/MS. […]
endpoint: AUC(0-inf) (ng·h/mL)
Field format: number, assumed ng·h/mL, no unit text.

Lookup: If you can, please state the reported AUC(0-inf) value of O=C(/C=C/c1ccc(O)c(O)c1)O[C@@H]1C[C@](O)(C(=O)O)C[C@@H](O)[C@H]1O .
Found: 27

Lookup: Same lookup for C[C@H](CCC(=O)O)[C@H]1CC[C@H]2[C@@H]3[C@H](O)C[C@@H]4C[C@H](O)CC[C@]4(C)[C@H]3CC[C@]12C , please.
Found: 761

Lookup: Same lookup for O=C(O)[C@H]1O[C@@H](Oc2cc3oc(-c4ccccc4)cc(=O)c3c(O)c2O)[C@H](O)[C@@H](O)[C@@H]1O , please.
Found: 44.3

Lookup: Same lookup for C[C@H](CCC(=O)O)[C@H]1CC[C@H]2[C@@H]3[C@@H](O)C[C@@H]4C[C@H](O)CC[C@]4(C)[C@H]3CC[C@]12C , please.
Found: 45000
